Test system: Diabrotica balteata
testDetails: Diabrotica balteata spray test
Format: in vivo
particulars: 168 h, application rate 100 g/ha (=32 μg/well), wheat seeds, larvae, after 7 days, read-out: activity (efficacy: 100% means all seedlings have grown up like in the untreated, uninfected control)
propertyMeasured: pest or weed control at 32 µg/disc, 100 g/ha (%)

INSERT INTO measurements (chemsmiles, measurednumber) VALUES
  ('COc1nc([C@H](C)NC(=O)c2cc(OC(F)F)cc(C(F)F)c2)n(-c2ccc(C#N)cn2)n1', 100),
  ('C[C@H](NC(=O)c1cc(Br)c(F)c(Br)c1)c1ncnn1-c1ccc(C#N)cn1', 80),
  ('C[C@H](NC(=O)c1cc(Br)cc(OC(F)(F)F)c1)c1ncnn1-c1ccc(C#N)cn1', 100),
  ('Cc1nc([C@H](C)NC(=O)c2cc(OC(F)(F)F)cc(C(F)F)c2)n(-c2ccc(C#N)cn2)n1', 100);
